Data provenance is paper PMC3292874.

Target: PC-PLC (phosphatidylcholine-specific phospholipase C) (Bacillus cereus, UniProt P09598)
Sequence (P09598 39-283 limits assumed): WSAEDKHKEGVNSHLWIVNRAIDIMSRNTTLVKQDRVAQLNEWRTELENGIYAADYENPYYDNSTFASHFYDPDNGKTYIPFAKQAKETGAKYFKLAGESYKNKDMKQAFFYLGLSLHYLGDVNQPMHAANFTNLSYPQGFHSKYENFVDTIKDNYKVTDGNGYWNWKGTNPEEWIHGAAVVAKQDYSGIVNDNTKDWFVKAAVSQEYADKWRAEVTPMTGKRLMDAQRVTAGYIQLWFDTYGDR
Assay: fluorescence of dequenched Pyro-PtdEtn-BHQ hydrolysis, initial rate
Format: biochemical

compound: S=C(S)OC1CC2CC1C1CCCC21 (stereo not shown) [D609]
unitsLabel: µM
IC50: 34
